Data origin, for the record: patent US20180327367A1

Below: a set of entries, each annotated with reported MIC.
Tested on: Methicillin Resistant Staphylococcus aureus strain USA 300, NRS384
procedure-summary: Minimum inhibitory concentration, broth micro-dilution (CLSI), S. aureus
Type: cell-based
measurement-setup: Staphylococcus aureus, MRSA / NRS 384 / USA300, 22 h, MRSA USA 300 NRS384; 35° C., 22 hours; read-out: MIC (μg/mL) S. aureus
Supply the numeric figure in µg/mL, leaving out any unit text.

structure_smiles=CCCCCCCCCNC(=O)CCC(=O)N[C@@H](CCN)C(=O)N(C)[C@@H]1C(=O)N[C@@H](C)C(=O)N[C@H](C(=O)NCC#N)Cc2ccc(OCCN)c(c2)-c2cc1ccc2OCCN val=0.063
structure_smiles=CCCCCCCCc1ccc(C(=O)N[C@@H](CCN)C(=O)N(C)[C@@H]2C(=O)N[C@@H](C)C(=O)N[C@H](C(=O)NCC#N)Cc3ccc(OCCN)c(c3)-c3cc2ccc3OCCN)c(CCC(=O)O)c1 val=0.13

// below: MIC requested for another molecule
// molecule CCCCCc1ccc(C(=O)N[C@@H](CCN)C(=O)N(C)[C@@H]2C(=O)N[C@@H](C)C(=O)N[C@H](C(=O)NCC#N)Cc3ccc(OCCN)c(c3)-c3cc2ccc3OCCN)c(C)c1 , assay Methicillin Resistant Staphylococcus aureus strain USA 300, NRS384, MIC value: 0.094

----------
target-entity: SpsB (Staphylococcus aureus signal peptidase) (Staphylococcus aureus)
Construct: This assay uses a suspension of Staphylococcus aureus cells as a source of SpsB instead of recombinant SpsB protein; endogenous in cells; host or cells: S. aureus, USA300 background, overexpressing SpsB (whole-cell suspension from frozen pellets)
procedure-summary: cell-based
Format: biochemical
measurement-setup: SpsB IC50, whole-cell S. aureus (USA300 background, overexpressing SpsB) as SpsB source; fluorogenic peptide substrate, kinetic read 30 min
Below: a set of entries, each annotated with reported log10 of IC50.
Scale: decimal log of IC50, IC50 in nM.

These solved cases illustrate the format of a correct answer.
structure_smiles=CCCCCCCc1ccc(C(=O)N[C@@H](CO)C(=O)N[C@@H](CCN)C(=O)N(C)[C@@H]2C(=O)N[C@@H](C)C(=O)N[C@H](C(=O)NCC#N)Cc3ccc(OCCN)c(c3)-c3cc2ccc3OCCN)cc1 val=-0.06
structure_smiles=CCCCCCCCc1ccc(C(=O)N[C@@H](CCN)C(=O)N(C)[C@@H]2C(=O)N[C@@H](C)C(=O)N[C@H](C(=O)NCC#N)Cc3ccc(OCCN)c(c3)-c3cc2ccc3OCCN)c(C(F)(F)F)c1 val=-0.05
structure_smiles=CCCCCCCSc1ccc(C(=O)N[C@@H](CCN)C(=O)N(C)[C@@H]2C(=O)N[C@@H](C)C(=O)N[C@H](C(=O)NCC#N)Cc3ccc(OCCN)c(c3)-c3cc2ccc3OCCN)c(C)c1 val=-0.09

Field log10 of IC50 (entry CCCCC#CCOc1ccc(C(=O)N[C@@H](CCN)C(=O)N(C)[C@@H]2C(=O)N[C@@H](C)C(=O)N[C@H](C(=O)NCC#N)Cc3ccc(OCCN)c(c3)-c3cc2ccc3OCCN)c(Cl)c1 ) reads -0.06

Field log10 of IC50 (entry CCCCCCc1ccc(C(=O)N[C@@H](CC(N)=O)C(=O)N(C)[C@@H]2C(=O)N[C@@H](C)C(=O)N[C@H](C(=O)NCC#N)Cc3ccc(OCCN)c(c3)-c3cc2ccc3OCCN)c(C)c1 ) reads 0.04

Field log10 of IC50 (entry CCCCCCCCCCCCCC(=O)N[C@@H](CCCCN)C(=O)N(C)[C@@H]1C(=O)N[C@@H](C)C(=O)N[C@H](C(=O)NCC#N)Cc2ccc(OCCN)c(c2)-c2cc1ccc2OCCN ) reads 0.11

Field log10 of IC50 (entry CCCCc1ccc(C(=O)N[C@H](CCO)C(=O)N[C@@H](CCN)C(=O)N(C)[C@@H]2C(=O)N[C@@H](C)C(=O)N[C@H](C(=O)NCC#N)Cc3ccc(OCCN)c(c3)-c3cc2ccc3OCCN)c(C)c1 ) reads 0.46

----------
target-entity: SpsB (Staphylococcus aureus signal peptidase) (Staphylococcus aureus, UniProt P0A070)
Construct: This assay uses a suspension of Staphylococcus aureus cells as a source of SpsB instead of recombinant SpsB protein; endogenous in cells; host or cells: S. aureus, USA300 background, overexpressing SpsB (whole-cell suspension from frozen pellets)
Sequence (P0A070 whole entry): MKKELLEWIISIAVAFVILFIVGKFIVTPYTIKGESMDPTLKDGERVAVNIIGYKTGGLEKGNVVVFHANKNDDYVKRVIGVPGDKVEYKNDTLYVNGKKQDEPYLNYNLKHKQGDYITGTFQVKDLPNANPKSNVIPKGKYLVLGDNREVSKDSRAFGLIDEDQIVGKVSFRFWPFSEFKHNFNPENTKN
procedure-summary: cell-based
Format: biochemical
measurement-setup: SpsB IC50, whole-cell S. aureus (USA300 background, overexpressing SpsB) as SpsB source; fluorogenic peptide substrate, kinetic read 30 min
readout: pIC50
Quick note: pIC50 means taking -log10 of the concentration in moles per liter.

// molecule CCCCCCCOc1ccc(C(=O)N[C@@H](CCCN)C(=O)N(C)[C@@H]2C(=O)N[C@@H](C)C(=O)N[C@H](C(=O)NCC#N)Cc3ccc(OCCN)c(c3)-c3cc2ccc3OCCN)c(Cl)c1 [Compound 282] , assay SpsB (Staphylococcus aureus signal peptidase) (Staphylococcus aureus, UniProt P0A070), pIC50 value: 9.15

// molecule CCCCCCCCCC(=O)N[C@@H](CCSC)C(=O)N(C)[C@@H]1C(=O)N[C@@H](C)C(=O)N[C@H](C(=O)NCC#N)Cc2ccc(OCCN)c(c2)-c2cc1ccc2OCCN [Compound 254] , assay SpsB (Staphylococcus aureus signal peptidase) (Staphylococcus aureus, UniProt P0A070), pIC50 value: 8.80

// molecule CCCCCc1ccc(-c2ncc(C(=O)N[C@@H](CCN)C(=O)N(C)[C@@H]3C(=O)N[C@@H](C)C(=O)N[C@H](C(=O)NCC#N)Cc4ccc(OCCN)c(c4)-c4cc3ccc4OCCN)c(C)n2)cc1 [Compound 162] , assay SpsB (Staphylococcus aureus signal peptidase) (Staphylococcus aureus, UniProt P0A070), pIC50 value: 9.14

----------
target-entity: SpsB (Staphylococcus aureus signal peptidase) (Staphylococcus aureus)
Construct: This assay uses a suspension of Staphylococcus aureus cells as a source of SpsB instead of recombinant SpsB protein; endogenous in cells; host or cells: S. aureus, USA300 background, overexpressing SpsB (whole-cell suspension from frozen pellets)
procedure-summary: cell-based
Format: biochemical
measurement-setup: SpsB IC50, whole-cell S. aureus (USA300 background, overexpressing SpsB) as SpsB source; fluorogenic peptide substrate, kinetic read 30 min
Below: a set of entries, each annotated with reported IC50.
Supply the numeric figure in nM, leaving out any unit text.

These solved cases illustrate the format of a correct answer.
structure_smiles=CCCCc1ccc(C(=O)N[C@H](CCC)C(=O)N[C@@H](CCN)C(=O)N(C)[C@@H]2C(=O)N[C@@H](C)C(=O)N[C@H](C(=O)NCC#N)Cc3ccc(OCCN)c(c3)-c3cc2ccc3OCCN)c(C)c1 val=1.8
structure_smiles=CCc1ccc(-c2ncc(C(=O)N[C@@H](CCN)C(=O)N(C)[C@@H]3C(=O)N[C@@H](C)C(=O)N[C@H](C(=O)NCC#N)Cc4ccc(OCCN)c(c4)-c4cc3ccc4OCCN)c(C)n2)cc1 val=2.5

Field IC50 (entry CCCCCCCCc1ccc(C(=O)N(C)[C@@H]2C(=O)N[C@@H](C)C(=O)N[C@H](C(=O)NCC#N)Cc3ccc(OCCN)c(c3)-c3cc2ccc3OCCN)cc1 ) reads 86

----------
Below: a set of entries, each annotated with reported pIC50.
target-entity: SpsB (Staphylococcus aureus signal peptidase) (Staphylococcus aureus)
Construct: This assay uses a suspension of Staphylococcus aureus cells as a source of SpsB instead of recombinant SpsB protein; endogenous in cells; host or cells: S. aureus, USA300 background, overexpressing SpsB (whole-cell suspension from frozen pellets)
procedure-summary: cell-based
Assay type: biochemical
measurement-setup: SpsB IC50, whole-cell S. aureus (USA300 background, overexpressing SpsB) as SpsB source; fluorogenic peptide substrate, kinetic read 30 min
Quick note: pIC50 means taking -log10 of the concentration in moles per liter.

molecule="CCCCCCCCCCCCCC(=O)N(C)[C@@H]1C(=O)N[C@@H](C)C(=O)N[C@H](C(=O)NCC#N)Cc2ccc(OCCN(C)C)c(c2)-c2cc1ccc2OCCN(C)C [Compound 460]" val=7.85
molecule="CCCCCCCCCCCCCC(=O)N1C[C@@H](N)CC1C(=O)N(C)[C@@H]1C(=O)N[C@@H](C)C(=O)N[C@H](C(=O)NCC#N)Cc2ccc(OCCN)c(c2)-c2cc1ccc2OCCN (some centres unmarked) [Compound 481]" val=8.92
molecule="CCCCCCc1ccc(C(=O)N[C@@H](CCCCN)C(=O)N(C)[C@@H]2C(=O)N[C@@H](C)C(=O)N[C@H](C(=O)NCC#N)Cc3ccc(OCCN)c(c3)-c3cc2ccc3OCCN)c(C)c1 [Compound 199]" val=9.14
molecule="CCCCCCCc1ccc(C(=O)N[C@@H](CCCN)C(=O)N(C)[C@@H]2C(=O)N[C@@H](C)C(=O)N[C@H](C(=O)NCC#N)Cc3ccc(OCCN)c(c3)-c3cc2ccc3OCCN)c(C)c1 [Compound 194]" val=9.08

// below: pIC50 requested for another molecule
// molecule CCCCCCCCCCS(=O)(=O)N[C@@H](CCN)C(=O)N(C)[C@@H]1C(=O)N[C@@H](C)C(=O)N[C@H](C(=O)NCC#N)Cc2ccc(OCCN)c(c2)-c2cc1ccc2OCCN [Compound 346] , assay SpsB (Staphylococcus aureus signal peptidase) (Staphylococcus aureus), pIC50 value: 9.15
